Experiment: Pharmacokinetic evaluation following intravenous and oral administration in rats
Format: in vivo, rat
Details: male Sprague-Dawley rats; PO 1 to 5 mg/kg vs IV 1 mg/kg; AUCinf(PO)/AUCinf(IV) dose-normalized
quantity kind: Oral Bioavailability F (%)

{"molecule": "O=C(Cc1ccc(F)c(C(F)(F)F)c1)Nc1c(Cl)ccc2c(=O)n(CCO)ccc12 [Compound 19]", "recorded measurement": "+ (0-25% F)"}
{"molecule": "Cc1ccc2c(=O)n([C@H](C)CO)ccc2c1C(=O)NCC1CCCCCC1 [Compound 49]", "recorded measurement": "+ (0-25% F)"}
{"molecule": "Cc1ccc2c(=O)n([C@H]3CCNC3)ccc2c1NC(=O)Cc1ccc(C(F)(F)F)c(F)c1 [Compound 29]", "recorded measurement": "+ (0-25% F)"}
{"molecule": "O=C(Cc1ccc(C(F)(F)F)c(F)c1)Nc1c(Cl)ccc2c(=O)n(CCO)ccc12 [Compound 16]", "recorded measurement": "++++ (>75% F)"}
{"molecule": "C[C@H](C(N)=O)n1ccc2c(NC(=O)Cc3cccc(C(F)(F)F)c3F)c(Cl)ccc2c1=O [Compound 5]", "recorded measurement": "+ (0-25% F)"}
{"molecule": "C[C@H](CO)n1ccc2c(NC(=O)Cc3ccc(C(F)(F)F)cc3)c(Cl)ccc2c1=O [Compound 10]", "recorded measurement": "++++ (>75% F)"}
{"molecule": "Cc1ccc2c(=O)n([C@H](C)C(N)=O)ccc2c1NC(=O)Cc1ccc(C(F)(F)F)c(F)c1 [Compound 51]", "recorded measurement": "+ (0-25% F)"}
{"molecule": "C[C@H](CO)n1ccc2c(NC(=O)Cc3ccc(C(F)(F)F)c(F)c3)c(Cl)ccc2c1=O [Compound 11]", "recorded measurement": "++++ (>75% F)"}
{"molecule": "C[C@H](C(N)=O)n1ccc2c(NC(=O)CC34CC5CC(CC(C5)C3)C4)c(Cl)ccc2c1=O [Compound 2]", "recorded measurement": "+ (0-25% F)"}

* * *

Assay: Half-life in human liver microsomes (HLM)
Assay type: in vitro ADME
Details: pH 7.4; human liver microsomes 0.78 mg/mL, 1 μM compound, NADPH, 37° C.

{"compound": "C[C@H](CO)n1ccc2c(C(=O)NCc3ccc(C(F)(F)F)c(F)c3)c(Cl)ccc2c1=O [Compound 41]", "half-life at 1 μM, min": 180}
{"compound": "Cc1ccc2c(=O)n([C@H](C)CO)ccc2c1C(=O)NCC1CCCCCC1 [Compound 49]", "half-life at 1 μM, min": 18}
{"compound": "C[C@H](CO)n1ccc2c(C(=O)NCC3(O)CCC(C(F)(F)F)CC3)c(Cl)ccc2c1=O (some centres unmarked) [Compound 56]", "half-life at 1 μM, min": 42}
{"compound": "C[C@H](C(N)=O)n1ccc2c(NC(=O)CC34CC5CC(CC(C5)C3)C4)c(Cl)ccc2c1=O [Compound 2]", "half-life at 1 μM, min": 48}
{"compound": "Cc1ccc2c(=O)n([C@H](C)CO)ccc2c1C(=O)NCc1cccc(C(F)(F)F)c1 [Compound 42]", "half-life at 1 μM, min": 48}
{"compound": "C[C@H](CO)n1ccc2c(C(=O)NCC3(O)CCC4(CC3)CC4(F)F)c(Cl)ccc2c1=O (some centres unmarked) [Compound 65]", "half-life at 1 μM, min": 37.2}
{"compound": "Cc1ccc2c(=O)n([C@H](C)CO)ccc2c1NC(=O)Cc1ccc(Cl)c(F)c1 [Compound 26]", "half-life at 1 μM, min": 96}
{"compound": "C[C@H](CO)n1ccc2c(C(=O)NCc3ccc(Cl)c(F)c3)c(Cl)ccc2c1=O [Compound 45]", "half-life at 1 μM, min": 96}

* * *

Biological target: P2X7 receptor (Homo sapiens, UniProt Q99572)
Sequence (Q99572 whole entry): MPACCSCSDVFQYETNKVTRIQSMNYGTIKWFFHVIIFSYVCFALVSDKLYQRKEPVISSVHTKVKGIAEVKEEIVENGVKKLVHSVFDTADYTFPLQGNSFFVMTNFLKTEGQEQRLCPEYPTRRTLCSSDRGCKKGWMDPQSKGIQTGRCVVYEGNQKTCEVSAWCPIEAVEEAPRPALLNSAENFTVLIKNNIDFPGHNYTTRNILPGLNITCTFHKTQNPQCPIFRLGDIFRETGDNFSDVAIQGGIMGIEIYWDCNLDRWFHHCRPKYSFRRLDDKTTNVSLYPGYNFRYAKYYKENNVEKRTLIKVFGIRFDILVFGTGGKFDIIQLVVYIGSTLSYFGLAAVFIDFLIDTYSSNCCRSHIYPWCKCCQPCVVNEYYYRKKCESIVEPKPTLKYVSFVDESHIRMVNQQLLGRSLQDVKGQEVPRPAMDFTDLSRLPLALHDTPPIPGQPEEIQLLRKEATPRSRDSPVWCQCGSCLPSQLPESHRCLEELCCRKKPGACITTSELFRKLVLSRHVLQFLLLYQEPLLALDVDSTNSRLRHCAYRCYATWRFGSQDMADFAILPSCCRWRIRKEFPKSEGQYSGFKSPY
Assay: IL-1β release assay in differentiated THP-1 cells (Example 9)
Settings: THP-1 cells differentiated with LPS and IFN-γ; 30 min pretreatment; BzATP 250 uM; IL-1β by ELISA
Description: THP-1 cells (ATCC Cat #285-IF-100) are plated in 96 well plates at a concentration of 200,000 cells per well and allowed to differentiate in RPMI-1640 media (ATCC Cat #30-2001) containing 10% FBS, 100 IU/mL penicillin, 100 ug/mL streptomycin, 100 ng/mL LPS and 100 ng/mL IFN-γ for 16 hours. […] 30 uL of cell supernatant is then collected and IL-1β levels are determined via ELISA (R&D systems Cat. # HSLB50) according to manufacturer's recommendations using a Tecan Safire plate reader. […]
pIC50: −log10 of the molar value.
Binary call on pIC50: class 1 from 8 upward, class 0 beneath that.

{"compound": "C[C@H](CO)n1ccc2c(C(=O)NCC3(O)CCCCCC3)c(Cl)ccc2c1=O [Compound 47]", "cat": "class 1"}
{"compound": "C[C@H](C(N)=O)n1ccc2c(NC(=O)Cc3ccc(C(F)(F)F)cc3)c(Cl)ccc2c1=O [Compound 3]", "cat": "class 1"}
{"compound": "Cc1ccc2c(=O)n([C@H](C)CO)ccc2c1NC(=O)CC12CC3CC(CC(C3)C1)C2 [Compound 31]", "cat": "class 1"}
{"compound": "C[C@H](CO)n1ccc2c(C(=O)NCC3CCCCCC3)c(Cl)ccc2c1=O [Compound 48]", "cat": "class 1"}
{"compound": "Cc1ccc2c(=O)n([C@H](C)C(N)=O)ccc2c1NC(=O)Cc1ccc(C(F)(F)F)c(F)c1 [Compound 51]", "cat": "class 1"}
{"compound": "C[C@H](CO)n1ccc2c(NC(=O)Cc3ccc(F)c(C(F)(F)F)c3)c(Cl)ccc2c1=O [Compound 13]", "cat": "class 1"}
{"compound": "Cc1ccc2c(=O)n(CCO)ccc2c1NC(=O)Cc1cccc(C(F)(F)F)c1F [Compound 24]", "cat": "class 0"}
{"compound": "C[C@H](C(=O)Nc1c(Cl)ccc2c(=O)n([C@H](C)C(N)=O)ccc12)c1ccc(Cl)cc1 [Compound 4]", "cat": "class 0"}
{"compound": "Cc1ccc2c(=O)n([C@H](C)CO)ccc2c1C(=O)NCC1CCCCCC1 [Compound 49]", "cat": "class 1"}
{"compound": "Cc1ccc2c(=O)n([C@H](C)CN3CC[C@H](N)C3)ccc2c1NC(=O)Cc1ccc(C(F)(F)F)c(F)c1 [Compound 66]", "cat": "class 1"}
{"compound": "Cc1ccc2c(=O)n([C@H](C)CN3CCNCC3)ccc2c1NC(=O)Cc1ccc(C(F)(F)F)c(F)c1 [Compound 60]", "cat": "class 1"}
{"compound": "C[C@H](CO)n1ccc2c(C(=O)NCC3(O)CCC(F)(F)CC3)c(Cl)ccc2c1=O [Compound 68]", "cat": "class 1"}
{"compound": "C[C@@H](CO)n1ccc2c(NC(=O)Cc3ccc(C(F)(F)F)c(F)c3)c(Cl)ccc2c1=O [Compound 34]", "cat": "class 0"}

* * *

// IC50 lookup, one value per entry
Biological target: P2X7 receptor (Homo sapiens, UniProt Q99572)
Test: IL-1β release assay in differentiated THP-1 cells (Example 9)
Conditions: THP-1 cells differentiated with LPS and IFN-γ; 30 min pretreatment; BzATP 250 uM; IL-1β by ELISA

{"molecular string": "O=C(Cc1cccc(C(F)(F)F)c1F)Nc1c(NCCO)ccc2c(=O)n(CCO)ccc12", "IC50 [nM]": 1670}
{"molecular string": "Cc1ccc2c(=O)n([C@H](C)CO)ccc2c1NC(=O)Cc1ccc(Cl)c(F)c1", "IC50 [nM]": 5}
{"molecular string": "CNC[C@@H](C)n1ccc2c(NC(=O)Cc3ccc(C(F)(F)F)c(F)c3)c(C)ccc2c1=O", "IC50 [nM]": 2}
{"molecular string": "C[C@H](CO)n1ccc2c(NC(=O)Cc3ccc(Cl)c(Cl)c3)c(Cl)ccc2c1=O", "IC50 [nM]": 13}

* * *

Consider the following molecules and their measured Half Life readings.
Test: Half-life in human liver microsomes (HLM)
Format: in vitro ADME
Conditions: human liver microsomes 0.78 mg/mL, 1 μM compound, NADPH, 37° C.
quantity kind: Half Life (h)

{"molecular string": "Cc1ccc2c(=O)n([C@H](C)CO)ccc2c1NC(=O)Cc1ccc(C(F)(F)F)c(F)c1", "quantity kind": "Half Life", "scale unit": "h", "recorded measurement": 1.5}
{"molecular string": "O=C(Cc1ccc(F)c(C(F)(F)F)c1)Nc1c(Cl)ccc2c(=O)n(CCO)ccc12", "quantity kind": "Half Life", "scale unit": "h", "recorded measurement": 1.1}
{"molecular string": "O=C(Cc1ccc(C(F)(F)F)c(F)c1)Nc1c(Cl)ccc2c(=O)n(CCO)ccc12", "quantity kind": "Half Life", "scale unit": "h", "recorded measurement": 3.7}
{"molecular string": "C[C@H](CO)n1ccc2c(NC(=O)Cc3ccc(Cl)c(F)c3)c(Cl)ccc2c1=O", "quantity kind": "Half Life", "scale unit": "h", "recorded measurement": 1.3}
